Reference source: patent US20250059205A1

SUBJECT_OF_TEST: GDP-bound KRAS protein (aa 1-169), containing both G12D and C118A amino acid substitutions (Homo sapiens, UniProt P01116, C118A/G12D)
Sequence (P01116 1-169 isoform P01116-2 G12D/C118A): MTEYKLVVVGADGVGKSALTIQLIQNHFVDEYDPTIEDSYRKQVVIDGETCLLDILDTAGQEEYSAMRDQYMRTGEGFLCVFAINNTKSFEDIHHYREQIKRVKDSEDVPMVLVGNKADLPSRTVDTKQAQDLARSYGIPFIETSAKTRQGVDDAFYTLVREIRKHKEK
EXPERIMENT_NOTES: KRAS G12D Coupled Nucleotide Exchange Assay
Format: biochemical
ASSAY_SETUP: 2 h compound pre-incubation
Experimental: Following compound pre-incubation, purified SOS protein (aa 564-1049) and GTP (Roche 10106399001) were added to the assay wells and incubated for an additional 30 min. […] The assay plates were then read on a PerkinElmer EnVision Multilabel Reader, using AlphaScreen® technology, and data were analyzed using a 4-parameter logistic model to calculate IC50 values.
Mark each entry condition met if its Avg 2 h Coupled Exchange IC50 sits below 3 nM, and condition not met for all others.

{"COMPOUND": "CCc1cccc2cccc(-c3c(Cl)cc4c(N5C[C@H]6CC[C@@H](C5)N6)nc(OC[C@@]56CCCN5C[C@H](F)C6)nc4c3F)c12 [Example 71]", "QUALITATIVE_LABEL": "condition not met"}
{"COMPOUND": "Oc1cc(-c2c(F)cc3c(N4[C@@H]5CNC[C@H]4COC5)nc(OC[C@@]45CCCN4C[C@H](F)C5)nc3c2F)c2ccccc2c1 [Example 14]", "QUALITATIVE_LABEL": "condition not met"}
{"COMPOUND": "CCc1cccc2cc(O)cc(-c3c(F)cc4c(N5C[C@H]6CC[C@@H](C5)N6)nc(OC[C@@]56CCCN5C[C@H](F)C6)nc4c3F)c12 [Example 147]", "QUALITATIVE_LABEL": "condition met"}
{"COMPOUND": "C=C(C)c1ccc2[nH]ncc2c1-c1ccc2c(N3C[C@H]4CC[C@@H](C3)N4)nc(OC[C@@]34CCCN3C[C@H](F)C4)nc2c1F [Example 198]", "QUALITATIVE_LABEL": "condition not met"}
{"COMPOUND": "CCc1c(F)ccc2cc(O)cc(-c3ccc4c(N5C[C@@H]6CC[C@H]5CN6)nc(OC[C@@]56CCCN5C[C@H](F)C6)nc4c3)c12 [Example 112]", "QUALITATIVE_LABEL": "condition met"}
{"COMPOUND": "Cc1ccc2cn[nH]c2c1-c1ccc2c(N3C[C@H]4CC[C@@H](C3)N4)nc(OC[C@@]34CCCN3C[C@H](F)C4)nc2c1 [Example 67]", "QUALITATIVE_LABEL": "condition not met"}
{"COMPOUND": "Cc1c(-c2cc(O)cc3cccc(Cl)c23)ccc2c(N3C[C@@H]4CC[C@H]3CN4)nc(OC[C@@]34CCCN3C[C@H](F)C4)nc12 [Example 96]", "QUALITATIVE_LABEL": "condition not met"}
{"COMPOUND": "Oc1ccc(Cl)c(-c2ccc3c(N4[C@@H]5CC[C@H]4CNC5)nc(OC[C@@]45CCCN4C[C@H](F)C5)nc3c2)c1F [Example 35]", "QUALITATIVE_LABEL": "condition not met"}
{"COMPOUND": "Oc1cc(-c2c(F)cc3c(N4C[C@H]5C[C@@H](C4)N5)nc(OCC45CCCN4CC(F)(F)C5)nc3c2F)c2ccccc2c1 (stereo partly drawn) [Example 20]", "QUALITATIVE_LABEL": "condition not met"}
{"COMPOUND": "C#Cc1cccc2cc(O)cc(-c3cc4nc(OC[C@@]56CCCN5C[C@H](F)C6)nc(N5C[C@H]6CC[C@@H](C5)N6)c4cc3F)c12 [Example 182]", "QUALITATIVE_LABEL": "condition met"}
